# TEST_TARGET: T1, HLA-A*02:01 (human)
# T1 construct: MHC class I monomer of the UV-ligand exchange assay; also called peptide-receptive MHC molecules; MHC class I
# EXPERIMENT_DESCRIPTION: UV peptide-exchange ELISA
READOUT_LABEL: peptide exchange yield

binder=ILLGIQELL readout_value="50 to 75%"
binder=ATYSGLESQSV readout_value="20 to 50%"
binder=ALDTLEDDMTI readout_value="50 to 75%"
binder=FVYFIVREV readout_value="50 to 75%"
binder=ALWDPVIEL readout_value="50 to 75%"
binder=QILSEIVEA readout_value="20 to 50%"
binder=ALGEEWKGYVV readout_value="20 to 50%"
binder=AVLGLVWLL readout_value="50 to 75%"

Quick batch: peptide exchange yield for everything below.
1. KTLDVDATYEI
2. VLVQVSPSL
3. YIQEYLTLL
4. VIAELPPKVSV

1: 50 to 75%; 2: 50 to 75%; 3: 50 to 75%; 4: 50 to 75%

Sourced from patent US20170165337A1
